The measured values listed here are drawn from PubChem BioAssay (NCI).

Method notes: NCI Yeast Anticancer Drug Screen. Data for the wt1 strain (AID 149);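 further: 0% = growth of vehicle-treated wt1 cultures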
Cond: S. cerevisiae wt1 strain (SPY 50644) growth inhibition; at 100.0 µM
About 79,000 compounds went through this panel and 15% of them were active in at least one assay; those are over-represented in the sample as a whole. Active and inactive are the calls of the source. No stated cut-off is given here; in the data, active means growth inhibition above about 70%; inactive means the rest.
The reply should be one of these categories: label 1 for active, label 0 for inactive

// return assay outcome for CCCCCCCCCCCCCCCCCCNC(=S)/N=C/c1c(O)c2ccccc2[nH]c1=O label 0

Another compound to check: O=[N+]([O-])c1ccc(/C=C\c2ccc3c(c2)OCO3)c([N+](=O)[O-])c1 label 0

Another: CC(C)(N=Nc1ccc(Cl)cc1)[N+](=O)[O-] label 1

Same question for COC(=O)C(=O)c1c(-c2ccc(Cl)c(Cl)c2)[nH]c2[nH]n(-c3ccccc3)c(=O)c2c1=O please. label 0

And for O=C(Oc1ccc([N+](=O)[O-])cc1)c1ccc([N+](=O)[O-])cc1 ? label 0

Param item: CC12CCC(CC(=O)/C1=C(/Br)I)C2(C)C (configuration not stated) label 0

Can you handle OB(O)c1ccccc1C#Cc1ccccc1 next? label 0

Then what about the compound COc1cc([C@@H]2c3cc4c(cc3[C@@H](NC(=O)NO)[C@H]3COC(=O)[C@H]23)OCO4)cc(OC)c1O ? label 0

Moving on to the next compound: O=C(O)/C=C\C(=O)Nc1ccc2c(c1)Cc1cc(Cl)ccc1-2 label 0

Then this compound: CCOC(=S)SSSC(=S)OCC label 1

Another compound: CN(C)CC1=Nc2cccc3cccc(c23)N1 label 0

What do you have for CC1=COC2=C(C)C(=O)C(=O)c3c(C)ccc1c32 ? label 1
